- Study target: recombinant CYP3A4+b5 enzyme (Supersomes®) (Homo sapiens, UniProt P08684)
- Construct: purchased BD Biosciences (Woburn, Mass.)
- Sequence (P08684 2-503 limits assumed): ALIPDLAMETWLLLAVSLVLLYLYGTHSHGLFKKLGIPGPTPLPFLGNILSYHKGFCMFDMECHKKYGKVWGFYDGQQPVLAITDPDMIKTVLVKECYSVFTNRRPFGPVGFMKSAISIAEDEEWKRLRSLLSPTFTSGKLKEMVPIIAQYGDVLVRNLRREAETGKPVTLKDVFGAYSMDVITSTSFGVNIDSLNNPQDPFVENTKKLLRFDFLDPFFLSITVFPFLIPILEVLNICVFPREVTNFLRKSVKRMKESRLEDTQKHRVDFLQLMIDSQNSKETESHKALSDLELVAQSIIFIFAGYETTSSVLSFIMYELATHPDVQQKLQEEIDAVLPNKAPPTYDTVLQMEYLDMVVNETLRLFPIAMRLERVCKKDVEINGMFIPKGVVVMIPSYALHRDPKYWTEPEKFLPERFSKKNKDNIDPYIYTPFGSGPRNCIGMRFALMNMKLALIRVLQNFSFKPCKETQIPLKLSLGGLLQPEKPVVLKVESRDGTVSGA
- Assay info: Kiapp against recombinant CYP3A4 enzyme (Supersomes), BFC substrate
- Format: biochemical
- Settings: recombinant CYP3A4+b5 (BD Biosciences), 5 uM BFC, 200 uM NADPH, pre-incubation at least 30 minutes, pH 7.0, room temperature
Property: Ki (µM)

Use these answered entries as a reference point.
Input line: GET /values?readout=Ki&item= `CN(C)[C@H]1CCN(C(=O)Cn2nc(-c3ccncc3)cc2Cc2ccc(F)cc2)C1`
Output line: 0.0339

Input line: GET /values?readout=Ki&item= `CC(=O)N1CCN(C(=O)Cn2nc(-c3ccncc3)cc2Cc2ccc(F)cc2)CC1`
Output line: 0.0168

A = CS(=O)(=O)C1CCN(C(=O)Cn2nc(-c3ccncc3)cc2Cc2ccc(F)cc2)C1 (stereo not drawn)
B = CC(C)NC(=O)NC1CCN(C(=O)Cn2nc(-c3ccncc3)cc2Cc2ccc(F)cc2)CC1
C = Fc1ccc(Cc2cc(-c3ccncc3)n[nH]2)cc1
D = COC(=O)NC1CN(C(=O)Cn2nc(-c3ccncc3)cc2Cc2ccc(F)cc2)C1
Input line: // ascending sort on recorded Ki # format: label list in the order the request specifies
Output line: C, D, B, A
(C: 0.0064 µM, D: 0.0147 µM, B: 0.0231 µM, A: 0.0716 µM)

====

- Study target: recombinant CYP3A4+b5 enzyme (Supersomes®) (Homo sapiens, UniProt P08684)
- Construct: purchased BD Biosciences (Woburn, Mass.)
- Assay info: Kiapp against recombinant CYP3A4 enzyme (Supersomes), BFC substrate
- Format: biochemical
- Settings: recombinant CYP3A4+b5 (BD Biosciences), 5 uM BFC, 200 uM NADPH, pre-incubation at least 30 minutes, pH 7.0, room temperature
- Description: 1. Determination of Compound Kiapp A determination of the Kiapp of the compounds of the invention against recombinant CYP3A4 enzyme was performed as follows. The assay was performed in a 100 mM sodium phosphate buffer pH 7.0, 5 mM TCEP and containing 2% dimethylformamide (final concentration) upon addition of substrate and inhibitor. […] The oxidation of the coumarin substrate was recorded by a 96-well plate reader POLARstar (BMG LABTECH, Offenburg, Germany). […]
Property: Ki (µM)

Input line: GET /values?readout=Ki&item= COC(=O)N(C)C1CCN(C(=O)Cn2nc(-c3ccncc3)cc2Cc2ccc(F)cc2)C1 (stereo not shown)
Output line: 0.00507

Input line: GET /values?readout=Ki&item= `CN(C(=O)Cn1nc(-c2ccncc2)cc1Cc1ccc(F)cc1)[C@H]1CC[C@@H](O)CC1`
Output line: 0.0358

1 = CC(=O)N[C@@H]1CCN(C(=O)Cn2nc(-c3ccncc3)cc2Cc2ccc(F)cc2)C1
2 = CS(=O)(=O)NC1CN(C(=O)Cn2nc(-c3ccncc3)cc2Cc2ccc(F)cc2)C1
Input line: When 1 and 2 are compared, which has the higher number for Ki? // output: label of the selected item
Output line: 1
(1: 0.0225 µM, 2: 0.00884 µM)

====

- Study target: CYP3A4 (Homo sapiens)
- Construct: 0.1 mg/mL human liver microsomes; from tissue; host or cells: human liver microsomes
- Sequence (P08684 whole entry): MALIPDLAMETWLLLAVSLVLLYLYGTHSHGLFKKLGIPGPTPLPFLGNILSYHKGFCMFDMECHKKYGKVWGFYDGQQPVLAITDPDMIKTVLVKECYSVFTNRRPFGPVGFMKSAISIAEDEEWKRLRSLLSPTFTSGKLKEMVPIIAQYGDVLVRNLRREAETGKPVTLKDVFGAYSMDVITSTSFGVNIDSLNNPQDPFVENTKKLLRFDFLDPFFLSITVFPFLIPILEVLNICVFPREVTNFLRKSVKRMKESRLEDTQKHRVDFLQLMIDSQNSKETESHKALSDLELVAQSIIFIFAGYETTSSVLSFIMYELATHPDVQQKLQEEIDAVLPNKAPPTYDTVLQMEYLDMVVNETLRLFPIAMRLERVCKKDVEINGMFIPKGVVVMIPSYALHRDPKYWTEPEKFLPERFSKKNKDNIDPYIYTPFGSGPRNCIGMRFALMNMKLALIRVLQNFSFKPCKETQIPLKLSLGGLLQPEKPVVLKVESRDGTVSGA
- Assay info: IC50 against CYP3A4 by inhibition of testosterone metabolism in human liver microsomes
- Format: biochemical
- Settings: 0.1 mg/mL human liver microsomes, 25 μM testosterone, 1 mM NADPH, 6-β-OH-testosterone production, eight minutes; read-out: IC50, μM (HLM, testosterone)
Property: IC50 (µM)

Input line: Query IC50 on CYP3A4 (Homo sapiens) for CC(C)(CN1CCOCC1)NC(=O)Cn1nc(-c2ccnnc2)cc1Cc1ccc(F)cc1 [Example 133]
Output line: 0.044

1 = CCn1ccnc1CNC(=O)Cn1nc(-c2ccncc2)cc1Cc1ccc(F)cc1 [Example 79]
2 = CCC(=O)N(C)C1CCN(C(=O)Cn2nc(-c3ccncc3)cc2Cc2ccc(F)cc2)CC1 [Example 10]
3 = CCC(=O)N1CC(n2nc(-c3ccncc3)cc2Cc2ccc(F)cc2)C1 [Example 22]
4 = Cc1noc(CNC(=O)Cn2nc(-c3ccncc3)cc2Cc2ccc(F)cc2)n1 [Example 90]
Input line: // ascending sort on recorded IC50 # format: label list in the order the request specifies
Output line: 4, 1, 2, 3

I = COCCn1nc(-c2ccncc2)cc1Cc1ccc(F)cc1 [Example 31]
II = CNC(=O)NC1CN(C(=O)Cn2nc(-c3ccncc3)cc2Cc2ccc(F)cc2)C1 [Example 126]
III = COC(=O)NC1CCN(C(=O)Cn2nc(-c3ccncc3)cc2Cc2ccc(F)cc2)CC1 [Example 105]
IV = CC(C)C(=O)N(C)C1CCN(C(=O)Cn2nc(-c3ccncc3)cc2Cc2ccc(F)cc2)CC1 [Example 11]
Input line: # rank_down: sort by IC50, max first # format: label list in the order the request specifies
Output line: II, III, I, IV
